Reference for the values: a melting point compilation (Tetko et al.)

Reported melting point values for a set of compounds

Consider the worked cases shown below.
Compound: O=C(O)CSc1nc2ccccc2s1
Property name: melting point
Observed measurement: 159 to 161 °C
--
Compound: COC(=O)c1cc(C)nc2nc(S)[nH]c(=O)c12
Property name: melting point
Observed measurement: 259 to 261 °C
--
Compound: CC(C)NC(=O)C(=O)NN
Property name: melting point
Observed measurement: 158 to 160 °C

Kindly consider the entry below.
Kindly note the recorded melting point for O=Cc1ccc(-n2ccnc2)nc1 , which is 139 to 141 °C

---

Reported melting point values for a set of compounds

Consider the worked cases shown below.
Compound: O=C(O)C(=O)c1ccc(Br)cc1
Observed measurement: 105 to 107 °C
--
Compound: CC(C)(O)CN1CCN(C(=O)OC(C)(C)C)CC1
Observed measurement: 33 to 35 °C
--
Compound: CC(C)N(C)S(=O)(=O)c1ccc(F)c(C(=O)O)c1
Observed measurement: 194 to 196 °C
--
Compound: COC(=O)Nc1cccc(C(=O)O)c1
Observed measurement: 229 to 231 °C
--
Compound: O=C(O)c1csc(C(=O)CCl)c1
Observed measurement: 147 to 149 °C

Kindly note the recorded melting point for O=C(O)c1cc(Cl)cc(S(=O)(=O)Cl)c1F , which is 162 to 164 °C

Kindly note the recorded melting point for Sc1nnc(-c2ccc(Cl)cc2)n1Cc1ccco1 , which is 117 to 119 °C

Kindly note the recorded melting point for CC(C)(C)OC(=O)N1CCC(NC(N)=O)CC1 , which is 217 to 219 °C

Kindly note the recorded melting point for O=C(O)CN1C(=O)CSc2ccccc21 , which is 151 to 153 °C

Kindly note the recorded melting point for NC(=O)c1ccc(N)cc1Cl , which is 163 to 165 °C

Kindly note the recorded melting point for NCc1cnc(-c2ccc(C(F)(F)F)cc2)s1 , which is 73 to 75 °C

Kindly note the recorded melting point for O=C(O)C1CCS(=O)(=O)C1 (stereo not drawn) , which is 135 to 137 °C

Kindly note the recorded melting point for CS(=O)(=O)N1CCC(N=C=O)CC1 , which is 84 to 86 °C

---

Reported melting point values for a set of molecules

Kindly note the recorded melting point for CC(C)(C)OC(=O)NNCCS(C)(=O)=O , which is 105 to 107 °C

Kindly note the recorded melting point for COc1cc(NC(C)=O)ccc1I , which is 138 to 140 °C

Kindly note the recorded melting point for CCS(=O)(=O)c1ccc(C(=O)O)c(N)c1 , which is 184 to 186 °C

---

Reported melting point values for a set of molecules

Molecule: Cc1cc2c(=O)[nH]cnc2s1
Property name: melting point
Observed measurement: 258 to 260 °C

Kindly note the recorded melting point for O=C(O)CCCOc1ccccc1Br , which is 87 to 89 °C

Kindly note the recorded melting point for O=C(CSc1nnc(S)s1)c1ccccc1 , which is 188 to 192 °C

---

Reported melting point values for a set of compounds

Compound: Nc1ncc2c(n1)CCC1(C2)OCCO1
melting point: 215 to 217 °C

Compound: CC(=O)N(C)c1ccc(S(N)(=O)=O)cc1
melting point: 153 to 155 °C

Kindly note the recorded melting point for O=C1CCCc2cc(S(=O)(=O)Cl)ccc2N1 , which is 208 to 210 °C

Kindly note the recorded melting point for O=[N+]([O-])c1cc(F)c(F)cc1[N+](=O)[O-] , which is 80 to 82 °C

Kindly note the recorded melting point for Cc1c(C(=O)O)sc2cccc(F)c12 , which is 230 to 232 °C

Kindly note the recorded melting point for CC(=O)Nc1ccc(F)c(C(=O)O)c1 , which is 259 to 261 °C

Kindly note the recorded melting point for C=CCNS(=O)(=O)c1cccc(C(=O)O)c1 , which is 180 to 182 °C

Kindly note the recorded melting point for Cn1c(=O)oc2cc(Br)ccc21 , which is 144 to 146 °C

Kindly note the recorded melting point for CCOC(=O)c1n[nH]sc1=N , which is 126 to 128 °C

Kindly note the recorded melting point for OC1(CCOc2ccccc2)CC1 , which is 57 to 59 °C

Kindly note the recorded melting point for CCc1ccc2c(CCl)cc(=O)oc2c1 , which is 138 to 140 °C

Kindly note the recorded melting point for CN(C)C1CCN(c2ccc(N)cc2)CC1 , which is 119 to 121 °C

Kindly note the recorded melting point for Nc1ccc(Cl)c(-c2nnc3n2CCCCC3)c1 , which is 284 to 286 °C
